- Test system: CCRF-CEM/VBL
- Method Notes: In vitro cytotoxicity, XTT assay, CCRF-CEM/VBL
- Type: cell-based, human
- Applied Conditions: Table 5; number in brackets
# fold of cross-resistant vs IC50 of the parent cell line, CCRF-CEM/VBL >= 4 × gives Criterion met, anything below gives Criterion not met

Molecule	Group
CCNC(=O)OCc1c(COC(=O)NCC)c2sc3ccccc3n2c1-c1ccc(OC)cc1 [Compound 19g]	Criterion not met
CC(C)NC(=O)OCc1c(COC(=O)NC(C)C)c2sc3ccccc3n2c1C1CC1 [Compound 20j]	Criterion met
CCNC(=O)OCc1c(COC(=O)NCC)c2sc3ccccc3n2c1C1CC1 [Compound 19j]	Criterion not met

-- ask Threshold query (fold of cross-resistant vs IC50 of the parent cell line, CCRF-CEM/VBL >= 4 ×) on COc1ccc(-c2c(CO)c(CO)c3sc4ccccc4n23)cc1 [Compound 18g]
-- reply Criterion not met

-- ask How about CCNC(=O)OCc1c(COC(=O)NCC)c2sc3ccccc3n2c1-c1ccc(F)cc1 [Compound 19b] ?
-- reply Criterion met

-- ask How about CC(C)NC(=O)OCc1c(-c2ccc(F)cc2)c2sc3ccccc3n2c1COC(=O)NC(C)C [Compound 20b] ?
-- reply Criterion not met

-- ask How about CCNC(=O)OCc1c(COC(=O)NCC)c2sc3ccccc3n2c1C [Compound 19a] ?
-- reply Criterion not met

-- ask How about CCNC(=O)OCc1c(COC(=O)NCC)c2sc3ccccc3n2c1-c1ccc(Cl)cc1 [Compound 19c] ?
-- reply Criterion not met

---

- Tested on: CCRF-CEM/VBL
- Method Notes: In vitro cytotoxicity, XTT assay, CCRF-CEM/VBL
- Assay type: cell-based, human
- Applied Conditions: Table 5; number in brackets
Recorded fold of cross-resistant vs IC50 of the parent cell line, CCRF-CEM/VBL values for a group of compounds are listed next.
The response must be a number in × with no trailing unit.

// below: answered compounds
Compound	Tested System	Endpoint Result
OCc1c(CO)c2sc3ccccc3n2c1C1CC1 [Compound 18j]	CCRF-CEM/VBL	2.51
OCc1c(CO)c2sc3ccccc3n2c1-c1ccc(F)cc1 [Compound 18b]	CCRF-CEM/VBL	3.50
Cc1c(CO)c(CO)c2sc3ccccc3n12 [Compound 18a]	CCRF-CEM/VBL	1.91

-- ask Recorded fold of cross-resistant vs IC50 of the parent cell line, CCRF-CEM/VBL of OCc1c(CO)c2sc3ccccc3n2c1-c1ccc(Cl)cc1 [Compound 18c] , please.
-- reply 1.56

-- ask How about COc1ccc(-c2c(COC(=O)NC(C)C)c(COC(=O)NC(C)C)c3sc4ccccc4n23)cc1 [Compound 20g] ?
-- reply 1.47

-- ask How about CC(C)NC(=O)OCc1c(COC(=O)NC(C)C)c2sc3ccccc3n2c1-c1ccc(F)c(F)c1 [Compound 20d] ?
-- reply 0.90

-- ask How about CCNC(=O)OCc1c(COC(=O)NCC)c2sc3ccccc3n2c1-c1ccc(F)c(F)c1 [Compound 19d] ?
-- reply 1.47

-- ask How about OCc1c(CO)c2sc3ccccc3n2c1-c1ccc(F)c(F)c1 [Compound 18d] ?
-- reply 1.47

-- ask How about CC(C)NC(=O)OCc1c(COC(=O)NC(C)C)c2sc3ccccc3n2c1-c1ccc(Cl)cc1 [Compound 20c] ?
-- reply 5.25

---

- Test system: breast carcinoma MX-1
- Method Notes: In vitro cytotoxicity, SRB assay, MX-1
- Assay type: cell-based, human
- Applied Conditions: Homo sapiens, Table 6, 72 h
- Excerpt: Human colon carcinoma HCT-116 cells and human prostate adenocarcinoma PC-3 cells were obtained from American Type Culture Collection (ATCC, Rockville, Md.). Human mammary carcinoma (MX-1) tumor cells were obtained from MSKCC cell bank. The CCRF-CEM human lymphoblastic leukemia cells and their vinblastine resistant subline (CCRF-CEM/VBL, 680-fold resistance in vitro) were obtained from Dr. William Beck of the University of Illinois, Chicago, and CCRF-CEM/Taxol (330-fold resistance in vitro). […]
Endpoint Name: IC50 (µM)
The response must be a number in µM with no trailing unit.

// below: answered compounds
Compound	IC50 / µM
OCc1c(CO)c2sc3ccccc3n2c1-c1ccc(Cl)cc1 [Compound 18c]	10.4
OCc1c(CO)c2sc3ccccc3n2c1-c1ccc(F)cc1 [Compound 18b]	2.77

-- ask Recorded IC50 of Cc1c(CO)c(CO)c2sc3ccccc3n12 [Compound 18a] , please.
-- reply 7.1

---

- Test system: glioma U87
- Method Notes: In vitro cytotoxicity, Alamar blue assay, U87
- Format: cell-based, human
- Applied Conditions: Table 6, 72 h
Assign labels as follows, please: condition met for IC50 below 30 µM; condition not met for IC50 equal to or exceeding 30 µM.

For orientation, consider the following solved cases.
Molecule	Group
CC(C)NC(=O)OCc1c(-c2ccc(F)cc2)c2sc3ccccc3n2c1COC(=O)NC(C)C [Compound 20b]	condition not met
CC(C)NC(=O)OCc1c(COC(=O)NC(C)C)c2sc3ccccc3n2c1C1CC1 [Compound 20j]	condition not met
CC(C)NC(=O)OCc1c(COC(=O)NC(C)C)c2sc3ccccc3n2c1-c1ccc(Cl)cc1 [Compound 20c]	condition met
CC(C)NC(=O)OCc1c(COC(=O)NC(C)C)c2sc3ccccc3n2c1-c1ccc(F)c(F)c1 [Compound 20d]	condition not met
COc1ccc(-c2c(COC(=O)NC(C)C)c(COC(=O)NC(C)C)c3sc4ccccc4n23)cc1 [Compound 20g]	condition not met

-- ask Regarding CCNC(=O)OCc1c(COC(=O)NCC)c2sc3ccccc3n2c1C1CC1 [Compound 19j] , kindly confirm whether its IC50 is beneath 30 µM.
-- reply condition not met

-- ask How about CCNC(=O)OCc1c(COC(=O)NCC)c2sc3ccccc3n2c1-c1ccc(Cl)cc1 [Compound 19c] ?
-- reply condition met

---

Recorded IC50 values for a group of molecules are listed next.
- Test system: non-small cell lung carcinoma H1299
- Method Notes: In vitro cytotoxicity, Alamar blue assay, H1299
- Assay type: cell-based, human
- Applied Conditions: Homo sapiens, NCI-H1299, Table 6, 72 h
Note: state the figure and append the unit.

Molecule	Tested System	IC50
OCc1c(CO)c2sc3ccccc3n2c1-c1ccc(F)cc1 [Compound 18b]	non-small cell lung carcinoma H1299	9.27 µM
OCc1c(CO)c2sc3ccccc3n2c1C1CC1 [Compound 18j]	non-small cell lung carcinoma H1299	13.3 µM
COc1ccc(-c2c(CO)c(CO)c3sc4ccccc4n23)cc1 [Compound 18g]	non-small cell lung carcinoma H1299	9.94 µM
OCc1c(CO)c2sc3ccccc3n2c1-c1ccc(Cl)cc1 [Compound 18c]	non-small cell lung carcinoma H1299	12.4 µM

// below: IC50 requested for another molecule
-- ask Give the reported IC50 for OCc1c(CO)c2sc3ccccc3n2c1-c1ccc(F)c(F)c1 [Compound 18d] (system: non-small cell lung carcinoma H1299).
-- reply 21.4 µM

---

- System: prostate cancer PC3
- Method Notes: In vitro cytotoxicity, Alamar blue assay, PC3
- Format: cell-based, human
- Applied Conditions: Table 6, 72 h
Recorded IC50 values for a group of molecules are listed next.
The response must be a number in µM with no trailing unit.

// below: answered molecules
Molecule	Unit Name	Endpoint Result
CCNC(=O)OCc1c(COC(=O)NCC)c2sc3ccccc3n2c1-c1ccc(F)c(F)c1 [Compound 19d]	µM	19.3
CC(C)NC(=O)OCc1c(COC(=O)NC(C)C)c2sc3ccccc3n2c1-c1ccc(Cl)cc1 [Compound 20c]	µM	13.7
CCNC(=O)OCc1c(COC(=O)NCC)c2sc3ccccc3n2c1-c1ccc(OC)cc1 [Compound 19g]	µM	17.9
COc1ccc(-c2c(COC(=O)NC(C)C)c(COC(=O)NC(C)C)c3sc4ccccc4n23)cc1 [Compound 20g]	µM	17.5
CCNC(=O)OCc1c(COC(=O)NCC)c2sc3ccccc3n2c1C1CC1 [Compound 19j]	µM	24.2

// below: IC50 requested for another molecule
-- ask Recorded IC50 of CCNC(=O)OCc1c(COC(=O)NCC)c2sc3ccccc3n2c1-c1ccc(F)cc1 [Compound 19b] , please.
-- reply 23.7

---

- System: colon carcinoma HCT-116
- Method Notes: In vitro cytotoxicity, SRB assay, HCT-116
- Type: cell-based, human
- Applied Conditions: Table 6, 72 h
Recorded IC50 values for a group of compounds are listed next.
Note: state the figure and append the unit.

// below: answered compounds
Compound	Endpoint Result
CCNC(=O)OCc1c(COC(=O)NCC)c2sc3ccccc3n2c1-c1ccc(Cl)cc1 [Compound 19c]	0.7 µM
CC(C)NC(=O)OCc1c(COC(=O)NC(C)C)c2sc3ccccc3n2c1-c1ccc(Cl)cc1 [Compound 20c]	1.7 µM
CC(C)NC(=O)OCc1c(-c2ccc(F)cc2)c2sc3ccccc3n2c1COC(=O)NC(C)C [Compound 20b]	0.35 µM

-- ask Recorded IC50 of CC(C)NC(=O)OCc1c(COC(=O)NC(C)C)c2sc3ccccc3n2c1-c1ccc(F)c(F)c1 [Compound 20d] , please.
-- reply 0.41 µM

-- ask How about CCNC(=O)OCc1c(COC(=O)NCC)c2sc3ccccc3n2c1-c1ccc(F)c(F)c1 [Compound 19d] ?
-- reply 1.1 µM

-- ask How about CCNC(=O)OCc1c(COC(=O)NCC)c2sc3ccccc3n2c1-c1ccc(F)cc1 [Compound 19b] ?
-- reply 0.52 µM
